# assay-summary: Metabolic stability in rat liver microsomes assessed as compound remaining after 30 mins
# Type: ADME, Microsome
# measurement-conditions: read-out: Stability
// classify: if (remaining at 0.5 h < 60%) 1 (yes) else 0 (no)

Hi there! Is remaining at 0.5 h for `CC(C)C[C@H](NS(C)(=O)=O)C(=O)N[C@@H]1CC[C@H]2CN(Cc3cccc(C(F)(F)F)c3)C[C@H]21` below 60%, do you know?
1 (yes)

Hi there! Is remaining at 0.5 h for `CCCC[C@H](NC)C(=O)N[C@H]1CC[C@@H]2CN(S(=O)(=O)c3ccc(C(F)(F)F)cc3)C[C@@H]21` below 60%, do you know?
0 (no)

Hi there! Is remaining at 0.5 h for `CN[C@@H](CC(C)C)C(=O)N[C@H]1CC[C@@H]2CN(c3ccc(C(F)(F)F)cc3)C[C@@H]21` below 60%, do you know?
0 (no)

----------
Voltage-gated inwardly rectifying potassium channel KCNH2 (Homo sapiens, UniProt Q12809) measurements of pKi, listed per entry.
Lab note: report pKi as minus log10 of the concentration in molar units, number only.

record-smiles	pKi
O=C(N[C@H]1CC[C@H]2CN(Cc3cccc(C(F)(F)F)c3)C[C@H]21)C(C1CCCCC1)C1CCCCC1	6.16

Find the recorded pKi belonging to `O=C(N[C@@H]1CC[C@H]2CN(Cc3cccc(C(F)(F)F)c3)C[C@H]21)C(C1CCCCC1)C1CCCCC1` and report it.
5.02

----------
# assay-summary: Volume of distribution at steady state in rat at 5 umol/kg, iv and 30 umol/kg, po
# Assay type: ADME, organism-based
# measurement-conditions: in vivo, read-out: Vdss
Here the recorded Vd is given for each entry.
Write the figure, then the unit, nothing else.

Solved cases (3 shown):
record-smiles	Vd
CC(C)C[C@@H](C(=O)N[C@@H]1CC[C@H]2CN(S(=O)(=O)c3cccc(C(F)(F)F)c3)C[C@H]21)N(C)C	5.2 L/kg
CC(C)N[C@@H](CC(C)(C)C)C(=O)N[C@H]1CC[C@@H]2CN(S(=O)(=O)c3ccc(C(F)(F)F)cc3)C[C@@H]21	7.1 L/kg
CC(C)C[C@H](N)C(=O)N[C@@H]1CC[C@H]2CN(S(=O)(=O)c3cccc(C(F)(F)F)c3)C[C@H]21	15 L/kg

Now look at this entry.
Find the recorded Vd belonging to `CN[C@@H](CC(C)C)C(=O)N[C@@H]1CC[C@H]2CN(S(=O)(=O)c3cccc(C(F)(F)F)c3)C[C@H]21` and report it.
9.2 L/kg

----------
# assay-summary: Solubility of the compound by chemiluminescent nitrogen detection method
Here the recorded solubility is given for each entry.
Express your answer in µM, writing the number without its unit.

Solved cases (3 shown):
record-smiles	property-measured	units-text	recorded-number
CC(C)C[C@H](N)C(=O)N[C@@H]1CC[C@H]2CN(S(=O)(=O)c3cccc(C(F)(F)F)c3)C[C@H]21	solubility	µM	44
CN[C@@H](CC(C)C)C(=O)N[C@@H]1CC[C@H]2CN(S(=O)(=O)c3cccc(C(F)(F)F)c3)C[C@H]21	solubility	µM	75
CCCC[C@H](NC)C(=O)N[C@H]1CC[C@@H]2CN(S(=O)(=O)c3ccc(C(F)(F)F)cc3)C[C@@H]21	solubility	µM	38

Find the recorded solubility belonging to `CN[C@@H](CC(C)C)C(=O)N[C@H]1CC[C@@H]2CN(c3cccc(C(F)(F)F)c3)C[C@@H]21` and report it.
56

Find the recorded solubility belonging to `CN[C@@H](CC(C)(C)C)C(=O)N[C@H]1CC[C@@H]2CN(S(=O)(=O)c3ccc(C(F)(F)F)cc3)C[C@@H]21` and report it.
76

Find the recorded solubility belonging to `CN[C@@H](CC(C)C)C(=O)N[C@H]1CC[C@@H]2CN(c3ccc(OC(F)(F)F)cc3)C[C@@H]21` and report it.
31

Find the recorded solubility belonging to `CC(C)(C)[C@H](N)C(=O)N[C@H]1CC[C@@H]2CN(S(=O)(=O)c3ccc(C(F)(F)F)cc3)C[C@@H]21` and report it.
94

----------
# experimental-target: Voltage-dependent N-type calcium channel subunit alpha-1B (Rattus norvegicus, UniProt Q02294)
# Sequence (Q02294 whole entry): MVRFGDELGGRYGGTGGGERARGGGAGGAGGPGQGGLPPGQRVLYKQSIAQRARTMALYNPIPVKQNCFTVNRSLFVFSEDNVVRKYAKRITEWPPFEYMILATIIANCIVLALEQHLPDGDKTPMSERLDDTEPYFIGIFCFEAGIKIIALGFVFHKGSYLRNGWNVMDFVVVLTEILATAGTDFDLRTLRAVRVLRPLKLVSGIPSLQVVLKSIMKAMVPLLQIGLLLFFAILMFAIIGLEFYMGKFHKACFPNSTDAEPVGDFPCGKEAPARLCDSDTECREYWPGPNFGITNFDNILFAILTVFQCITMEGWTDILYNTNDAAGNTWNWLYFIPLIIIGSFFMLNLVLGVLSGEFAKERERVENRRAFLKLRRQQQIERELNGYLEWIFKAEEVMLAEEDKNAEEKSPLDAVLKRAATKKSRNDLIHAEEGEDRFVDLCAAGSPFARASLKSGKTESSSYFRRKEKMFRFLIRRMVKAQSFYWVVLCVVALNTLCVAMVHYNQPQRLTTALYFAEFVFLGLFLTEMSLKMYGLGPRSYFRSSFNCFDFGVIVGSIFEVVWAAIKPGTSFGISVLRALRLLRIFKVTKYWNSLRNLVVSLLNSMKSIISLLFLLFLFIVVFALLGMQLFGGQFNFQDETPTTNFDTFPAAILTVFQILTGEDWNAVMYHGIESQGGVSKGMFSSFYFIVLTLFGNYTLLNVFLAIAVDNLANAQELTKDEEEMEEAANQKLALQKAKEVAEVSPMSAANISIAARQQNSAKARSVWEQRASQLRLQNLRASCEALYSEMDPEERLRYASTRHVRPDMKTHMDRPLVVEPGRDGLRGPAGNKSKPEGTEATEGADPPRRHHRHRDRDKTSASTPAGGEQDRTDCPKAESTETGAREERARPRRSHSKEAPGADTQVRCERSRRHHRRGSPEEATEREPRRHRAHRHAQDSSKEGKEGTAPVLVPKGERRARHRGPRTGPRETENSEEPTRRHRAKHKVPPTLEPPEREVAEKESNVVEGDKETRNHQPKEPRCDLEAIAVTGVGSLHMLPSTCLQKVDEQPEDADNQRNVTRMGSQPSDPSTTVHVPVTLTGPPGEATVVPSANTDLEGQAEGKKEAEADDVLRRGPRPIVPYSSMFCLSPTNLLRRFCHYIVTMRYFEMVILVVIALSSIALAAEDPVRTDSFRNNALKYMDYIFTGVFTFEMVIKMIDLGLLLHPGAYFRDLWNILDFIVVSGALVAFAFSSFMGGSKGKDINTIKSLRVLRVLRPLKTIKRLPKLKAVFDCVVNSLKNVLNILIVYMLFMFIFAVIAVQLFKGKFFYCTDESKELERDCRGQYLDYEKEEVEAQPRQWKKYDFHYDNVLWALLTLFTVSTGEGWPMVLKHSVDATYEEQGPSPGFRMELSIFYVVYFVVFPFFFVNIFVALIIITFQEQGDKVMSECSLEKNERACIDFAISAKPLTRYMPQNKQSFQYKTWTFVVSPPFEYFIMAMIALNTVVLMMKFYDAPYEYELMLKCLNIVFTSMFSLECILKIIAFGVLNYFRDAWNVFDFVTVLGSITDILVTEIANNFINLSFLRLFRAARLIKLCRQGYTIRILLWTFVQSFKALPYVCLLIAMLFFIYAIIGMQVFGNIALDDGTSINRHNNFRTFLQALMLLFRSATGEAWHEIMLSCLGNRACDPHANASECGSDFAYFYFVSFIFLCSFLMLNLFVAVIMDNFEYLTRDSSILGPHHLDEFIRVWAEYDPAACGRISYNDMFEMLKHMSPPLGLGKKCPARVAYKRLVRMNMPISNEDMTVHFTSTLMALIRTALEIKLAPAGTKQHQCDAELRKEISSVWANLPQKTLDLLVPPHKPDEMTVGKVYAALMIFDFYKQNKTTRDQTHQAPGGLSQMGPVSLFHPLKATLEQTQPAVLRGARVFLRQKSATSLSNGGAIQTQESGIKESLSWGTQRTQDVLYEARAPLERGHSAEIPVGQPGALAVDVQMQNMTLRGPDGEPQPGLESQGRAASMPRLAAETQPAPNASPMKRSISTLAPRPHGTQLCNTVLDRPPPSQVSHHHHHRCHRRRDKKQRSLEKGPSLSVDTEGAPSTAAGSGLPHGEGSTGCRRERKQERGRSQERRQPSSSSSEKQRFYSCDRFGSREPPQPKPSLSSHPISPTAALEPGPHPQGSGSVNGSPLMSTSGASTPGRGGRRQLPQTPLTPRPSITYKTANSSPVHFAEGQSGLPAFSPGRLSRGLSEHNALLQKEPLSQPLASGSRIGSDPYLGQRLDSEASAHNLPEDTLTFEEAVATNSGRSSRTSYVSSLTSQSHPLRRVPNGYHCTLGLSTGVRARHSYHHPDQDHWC
# assay-summary: Inhibition of rat N-type Cav2.2 channel expressed in HEK293 cells under hyperpolarized condition by whole cell patch-clamp manual electrophysiology assay
# Format: cell-based
Here the recorded IC50 is given for each entry.
Express your answer in nM, writing the number without its unit.

record-smiles	units-text	recorded-number
CC(C)N[C@@H](CC(C)(C)C)C(=O)N[C@H]1CC[C@@H]2CN(S(=O)(=O)c3ccc(C(F)(F)F)cc3)C[C@@H]21	nM	340

Find the recorded IC50 belonging to `CN[C@@H](CC(C)C)C(=O)N[C@H]1CC[C@@H]2CN(c3ccc(C(F)(F)F)cc3)C[C@@H]21` and report it.
4400

----------
# assay-summary: Plasma clearance in rat at 5 umol/kg, iv and 30 umol/kg, po
# Assay type: ADME, organism-based
# measurement-conditions: plasma
Here the recorded clearance is given for each entry.
Express your answer in mL/min/kg, writing the number without its unit.

record-smiles	units-text	recorded-number
CN[C@@H](CC(C)C)C(=O)N[C@@H]1CC[C@H]2CN(S(=O)(=O)c3cccc(C(F)(F)F)c3)C[C@H]21	mL/min/kg	60
CC(C)C[C@@H](C(=O)N[C@@H]1CC[C@H]2CN(S(=O)(=O)c3cccc(C(F)(F)F)c3)C[C@H]21)N(C)C	mL/min/kg	56.7

Now look at this entry.
Find the recorded clearance belonging to `CC(C)C[C@H](N)C(=O)N[C@@H]1CC[C@H]2CN(S(=O)(=O)c3cccc(C(F)(F)F)c3)C[C@H]21` and report it.
568

----------
# assay-summary: Volume of distribution at steady state in rat at 5 umol/kg, iv and 5 umol/kg, po
# Type: ADME, organism-based
# measurement-conditions: in vivo, read-out: Vdss
property-measured: Vd
Write the figure, then the unit, nothing else.

Find the recorded Vd belonging to `CN[C@@H](CC(C)C)C(=O)N[C@H]1CC[C@@H]2CN(S(=O)(=O)c3ccc(C(F)(F)F)cc3)C[C@@H]21` and report it.
13.2 L/kg

Find the recorded Vd belonging to `CN[C@@H](CC(C)C)C(=O)N[C@H]1CC[C@@H]2CN(c3ccc(C(F)(F)F)cc3)C[C@@H]21` and report it.
26.5 L/kg

Find the recorded Vd belonging to `CN[C@@H](CC(C)C)C(=O)N[C@@H]1CC[C@H]2CN(S(=O)(=O)c3ccc(C(F)(F)F)cc3)C[C@H]21` and report it.
5.6 L/kg

----------
Here the recorded pIC50 is given for each entry.
# experimental-target: Voltage-dependent N-type calcium channel subunit alpha-1B (Homo sapiens, UniProt Q00975)
# Sequence (Q00975 whole entry): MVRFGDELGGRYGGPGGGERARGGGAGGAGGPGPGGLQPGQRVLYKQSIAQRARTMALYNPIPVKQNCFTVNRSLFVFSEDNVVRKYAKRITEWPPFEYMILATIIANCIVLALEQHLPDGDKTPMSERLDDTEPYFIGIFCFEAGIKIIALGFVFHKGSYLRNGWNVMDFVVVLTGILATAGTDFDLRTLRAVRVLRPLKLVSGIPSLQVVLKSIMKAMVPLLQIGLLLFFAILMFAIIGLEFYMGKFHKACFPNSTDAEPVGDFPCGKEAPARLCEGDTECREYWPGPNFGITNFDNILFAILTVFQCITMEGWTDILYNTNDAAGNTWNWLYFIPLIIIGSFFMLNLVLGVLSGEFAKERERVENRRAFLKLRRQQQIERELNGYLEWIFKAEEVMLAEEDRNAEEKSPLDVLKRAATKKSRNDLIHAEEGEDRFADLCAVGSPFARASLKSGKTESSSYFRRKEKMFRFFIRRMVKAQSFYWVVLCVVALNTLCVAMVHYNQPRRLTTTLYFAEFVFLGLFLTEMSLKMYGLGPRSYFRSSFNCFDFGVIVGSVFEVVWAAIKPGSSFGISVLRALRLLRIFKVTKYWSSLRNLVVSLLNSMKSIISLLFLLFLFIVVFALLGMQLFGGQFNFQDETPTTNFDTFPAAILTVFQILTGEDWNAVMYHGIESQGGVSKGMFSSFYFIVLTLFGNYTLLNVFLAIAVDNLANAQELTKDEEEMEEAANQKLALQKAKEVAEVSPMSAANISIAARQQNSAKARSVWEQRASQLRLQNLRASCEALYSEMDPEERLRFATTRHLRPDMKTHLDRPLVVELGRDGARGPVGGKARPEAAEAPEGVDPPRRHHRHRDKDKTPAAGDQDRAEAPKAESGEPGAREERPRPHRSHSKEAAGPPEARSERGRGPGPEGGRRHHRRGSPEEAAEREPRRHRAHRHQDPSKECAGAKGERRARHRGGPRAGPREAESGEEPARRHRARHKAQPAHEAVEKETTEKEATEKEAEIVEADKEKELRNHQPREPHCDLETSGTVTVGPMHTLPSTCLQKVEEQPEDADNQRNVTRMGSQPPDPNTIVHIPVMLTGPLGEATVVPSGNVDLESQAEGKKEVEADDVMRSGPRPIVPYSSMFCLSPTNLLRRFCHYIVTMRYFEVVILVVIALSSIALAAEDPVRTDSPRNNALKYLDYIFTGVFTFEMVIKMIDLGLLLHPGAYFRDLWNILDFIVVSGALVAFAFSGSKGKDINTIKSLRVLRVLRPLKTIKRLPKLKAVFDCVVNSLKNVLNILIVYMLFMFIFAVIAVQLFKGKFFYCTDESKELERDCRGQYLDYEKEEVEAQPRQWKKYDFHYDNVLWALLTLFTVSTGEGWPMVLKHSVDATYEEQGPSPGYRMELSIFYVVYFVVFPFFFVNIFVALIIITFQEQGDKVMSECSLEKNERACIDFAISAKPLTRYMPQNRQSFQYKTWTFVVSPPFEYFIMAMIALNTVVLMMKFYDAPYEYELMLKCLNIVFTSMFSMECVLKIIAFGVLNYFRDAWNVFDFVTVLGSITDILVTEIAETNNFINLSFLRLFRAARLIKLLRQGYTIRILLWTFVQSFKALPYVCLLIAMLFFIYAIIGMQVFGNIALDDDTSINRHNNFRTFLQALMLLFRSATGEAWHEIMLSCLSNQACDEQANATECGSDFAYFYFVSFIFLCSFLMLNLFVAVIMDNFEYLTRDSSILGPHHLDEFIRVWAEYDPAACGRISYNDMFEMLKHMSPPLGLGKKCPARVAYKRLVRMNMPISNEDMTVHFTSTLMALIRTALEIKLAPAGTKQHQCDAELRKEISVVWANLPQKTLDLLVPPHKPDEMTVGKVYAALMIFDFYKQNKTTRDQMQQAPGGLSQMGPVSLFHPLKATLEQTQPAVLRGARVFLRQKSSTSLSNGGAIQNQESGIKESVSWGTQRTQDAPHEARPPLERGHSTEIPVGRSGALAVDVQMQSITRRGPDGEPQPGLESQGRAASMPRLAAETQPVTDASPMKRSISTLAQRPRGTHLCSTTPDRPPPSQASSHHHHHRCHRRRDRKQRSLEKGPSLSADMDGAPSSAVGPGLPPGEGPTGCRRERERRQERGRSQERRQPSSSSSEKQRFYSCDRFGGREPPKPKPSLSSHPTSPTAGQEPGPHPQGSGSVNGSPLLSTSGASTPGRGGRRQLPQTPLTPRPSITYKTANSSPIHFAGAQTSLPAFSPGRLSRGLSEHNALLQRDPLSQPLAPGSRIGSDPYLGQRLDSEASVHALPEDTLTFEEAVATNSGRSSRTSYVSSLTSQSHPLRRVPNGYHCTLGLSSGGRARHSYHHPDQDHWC
# assay-summary: Inhibition of N-type Cav2.2 channel (unknown origin) by FLIPR assay
# measurement-conditions: read-out: IC50
Lab note: report pIC50 as minus log10 of the concentration in molar units, number only.

Solved cases (3 shown):
record-smiles	pIC50
CC(C)(C)C[C@H](N)C(=O)N[C@H]1CC[C@@H]2CN(S(=O)(=O)c3ccc(C(F)(F)F)cc3)C[C@@H]21	6.06
CC(C)(C)[C@H](N)C(=O)N[C@H]1CC[C@@H]2CN(S(=O)(=O)c3ccc(C(F)(F)F)cc3)C[C@@H]21	5.82
CCCC[C@H](NC)C(=O)N[C@H]1CC[C@@H]2CN(S(=O)(=O)c3ccc(C(F)(F)F)cc3)C[C@@H]21	6.12

Now look at this entry.
Find the recorded pIC50 belonging to `CN[C@@H](CC(C)C)C(=O)N[C@@H]1CC[C@H]2CN(S(=O)(=O)c3ccc(C(F)(F)F)cc3)C[C@H]21` and report it.
6.11

----------
Here the recorded solubility is given for each entry.
# assay-summary: Solubility of the compound by chemiluminescent nitrogen detection method
Express your answer in µM, writing the number without its unit.

record-smiles	solubility [µM]
CN[C@@H](CC(C)C)C(=O)N[C@H]1CC[C@@H]2CN(S(=O)(=O)c3ccc(C(F)(F)F)cc3)C[C@@H]21	77
CC(C)C[C@@H](C(=O)N[C@@H]1CC[C@H]2CN(S(=O)(=O)c3cccc(C(F)(F)F)c3)C[C@H]21)N(C)C	79
CN[C@@H](CC(C)C)C(=O)N[C@H]1CC[C@@H]2CN(c3ccc(C(F)(F)F)cc3)C[C@@H]21	33
CN[C@@H](CC(C)C)C(=O)N[C@@H]1CC[C@H]2CN(S(=O)(=O)c3ccc(C(F)(F)F)cc3)C[C@H]21	27

Now look at this entry.
Find the recorded solubility belonging to `CN[C@@H](CC(C)C)C(=O)N[C@@H]1CC[C@H]2CN(Cc3cccc(C(F)(F)F)c3)C[C@H]21` and report it.
67

----------
Here the recorded remaining at 0.5 h is given for each entry.
# assay-summary: Metabolic stability in human liver microsomes assessed as compound remaining after 30 mins
# Assay type: ADME, Microsome
# measurement-conditions: read-out: Stability
Express your answer in %, writing the number without its unit.

record-smiles	remaining at 0.5 h, %
CCCC[C@H](NC)C(=O)N[C@H]1CC[C@@H]2CN(S(=O)(=O)c3ccc(C(F)(F)F)cc3)C[C@@H]21	51.1
CC(C)N[C@@H](CC(C)(C)C)C(=O)N[C@H]1CC[C@@H]2CN(S(=O)(=O)c3ccc(C(F)(F)F)cc3)C[C@@H]21	79.6
O=C(N[C@H]1CC[C@H]2CN(Cc3cccc(C(F)(F)F)c3)C[C@H]21)C(C1CCCCC1)C1CCCCC1	0.5
CN[C@@H](CC(C)C)C(=O)N[C@@H]1CC[C@H]2CN(Cc3cccc(C(F)(F)F)c3)C[C@H]21	19.4

Find the recorded remaining at 0.5 h belonging to `CC(C)(C)C[C@H](N)C(=O)N[C@H]1CC[C@@H]2CN(S(=O)(=O)c3ccc(C(F)(F)F)cc3)C[C@@H]21` and report it.
41.8

Find the recorded remaining at 0.5 h belonging to `CN[C@@H](CC(C)(C)C)C(=O)N[C@H]1CC[C@@H]2CN(S(=O)(=O)c3ccc(C(F)(F)F)cc3)C[C@@H]21` and report it.
33.6

Find the recorded remaining at 0.5 h belonging to `CC(C)C[C@H](N)C(=O)N[C@@H]1CC[C@H]2CN(S(=O)(=O)c3cccc(C(F)(F)F)c3)C[C@H]21` and report it.
45

Find the recorded remaining at 0.5 h belonging to `CN[C@@H](CC(C)C)C(=O)N[C@H]1CC[C@@H]2CN(S(=O)(=O)c3ccc(C(F)(F)F)cc3)C[C@@H]21` and report it.
54.4

Find the recorded remaining at 0.5 h belonging to `CN[C@@H](CC(C)C)C(=O)N[C@@H]1CC[C@H]2CN(S(=O)(=O)c3ccc(C(F)(F)F)cc3)C[C@H]21` and report it.
50.5

Find the recorded remaining at 0.5 h belonging to `CC(C)C[C@H](NS(C)(=O)=O)C(=O)N[C@@H]1CC[C@H]2CN(Cc3cccc(C(F)(F)F)c3)C[C@H]21` and report it.
23.6

Find the recorded remaining at 0.5 h belonging to `CN[C@@H](CC(C)C)C(=O)N[C@H]1CC[C@@H]2CN(c3cccc(C(F)(F)F)c3)C[C@@H]21` and report it.
73

Find the recorded remaining at 0.5 h belonging to `CC(C)C[C@@H](C(=O)N[C@@H]1CC[C@H]2CN(S(=O)(=O)c3cccc(C(F)(F)F)c3)C[C@H]21)N(C)C` and report it.
0.1

Find the recorded remaining at 0.5 h belonging to `CCC[C@H](NC)C(=O)N[C@H]1CC[C@@H]2CN(S(=O)(=O)c3ccc(C(F)(F)F)cc3)C[C@@H]21` and report it.
74.6

Find the recorded remaining at 0.5 h belonging to `CN[C@@H](Cc1ccccc1)C(=O)N[C@H]1CC[C@@H]2CN(S(=O)(=O)c3ccc(C(F)(F)F)cc3)C[C@@H]21` and report it.
26.8
